# Tested on: NCI-H522
# Assay Comment: NCI tumour cell line growth inhibition, 48 h
Activity calls are given as the source filed them. No stated cut-off is given here; in the data, active = GI50 up to about 1.1 µM and inactive = higher.
GI50: recorded values
Property Name: GI50

compound=O=C(O)/C=C\C(=O)Nc1ccc2c(c1)C(=O)c1cc(F)ccc1-2 assay_value="56.2 µM (inactive)"
compound=CN(C)c1ccc(/C=C2/SC(=S)NC2=O)cc1 assay_value="> 100 µM (inactive)"
compound=Cc1cc2c(ccc[n+]2[O-])[n+]([O-])c1 assay_value="> 100 µM (inactive)"
compound="CN1CCc2cc3c(c4c2C1C(O)c1ccccc1-4)OCO3 (stereo not given)" assay_value="2.93 µM (inactive)"
compound="CCCCCCOP(=O)(OCCCCCC)OC(C(=O)OC)C(F)(F)F (stereo not given)" assay_value="> 100 µM (inactive)"
compound="CC1=NN(C(=O)CC(=O)N(C(=O)c2ccccc2)c2ccc(Cl)cc2)C(=O)C1/N=N/c1ccc([N+](=O)[O-])cc1 (stereo not given)" assay_value="> 10 µM (inactive)"
compound="CCOC1=NC(O)c2cccn2-c2sccc21 (stereo not given)" assay_value="> 100 µM (inactive)"
compound=CC(CCC(=O)O)(c1ccc(O)cc1)c1ccc(O)cc1 assay_value="> 100 µM (inactive)"
compound="COC(=O)C1C2CC3C1C3C2C(=O)OC (stereo not given)" assay_value="> 100 µM (inactive)"
compound=NS(=O)(=O)c1cc2c(cc1Cl)NC(C(=O)c1cc(=O)c3ccc(O)cc3o1)=NS2(=O)=O assay_value="> 100 µM (inactive)"

###

# Tested on: MDA-MB-435
# Assay Comment: NCI tumour cell line growth inhibition, 48 h
The source made the active and inactive calls. Rule as the data show it: active = GI50 up to about 1.1 µM and inactive = higher.
Property Name: GI50

compound=Cc1nc2c(=O)n3c4c(cccc4c2o1)CCC3 assay_value="> 100 µM (inactive)"
compound="CCOC(=O)C1=c2[nH]c3cccc4cccc(c43)n2C=C(C(C)=O)C1CC(C)=O (stereo unspecified)" assay_value="52.6 µM (inactive)"
compound="CCOC(=O)C(C(=S)SC)c1nn2c(=O)cc(C)nc2s1 (stereo unspecified)" assay_value="18.2 µM (inactive)"
compound=Cc1nc(O)nc2nc3cc(Cl)cc(Cl)c3c(NC(C)(CO)CO)c12 assay_value="> 100 µM (inactive)"
compound=c1ccc2c(c1)CCc1c-2n(CCN2CCCCC2)c2ccccc12 assay_value="25.4 µM (inactive)"
compound=C/C(=C1\N=C(c2ccccc2)OC1=O)c1ccccc1 assay_value="> 100 µM (inactive)"
compound=Cc1nc(N/N=C/c2ccccc2Cl)[nH]c(=O)c1CCO assay_value="> 100 µM (inactive)"
compound=CCCCSc1n/c(=C\c2ccc(N(C)C)cc2)c2nnnn12 assay_value="> 100 µM (inactive)"
compound="O=[N+]([O-])c1ccc(C2=NOC(c3ccc(Cl)cc3)N2C23CC4CC(CC(C4)C2)C3)cc1 (stereo unspecified)" assay_value="> 100 µM (inactive)"
compound="CC(=O)N1c2ccccc2C23CCN4CC5=CCOC(O)C(C5CC42)C13 (stereo unspecified)" assay_value="> 100 µM (inactive)"
compound=O=CN1CCN(C(=O)c2ccc(Cl)cc2Cl)C1=S assay_value="43.9 µM (inactive)"

###

# Tested on: SNB-75
# Assay Comment: NCI tumour cell line growth inhibition, 48 h
Activity calls are given as the source filed them. No stated cut-off is given here; in the data, active = GI50 up to about 1.1 µM and inactive = higher.
Labels: t for active, f for inactive

molecule=CS(=O)(=O)OCCN1CCN(C(=O)c2cccc3c(Nc4ccc(S(=O)(=O)N=C(N)N)cc4)c4ccccc4nc23)CC1 label_value=f
molecule="COC(=O)C1C2CC3C1C3C2C(=O)OC (stereo not given)" label_value=f
molecule=Cc1nc2c(n1CC(C)C)C(=O)c1ccccc1C2=O label_value=f
molecule="Cc1ccc(S(=O)(=O)[N-]C2C(=O)c3ccccc3C(=O)C2[n+]2cccc(C(N)=O)c2)cc1 (stereo not given)" label_value=f
molecule="S=C1N=C2C(=N1)n1c3c(c4ccccc41)CCCC23 (stereo not given)" label_value=f
molecule=COc1cc([C@@H]2c3cc4c(cc3[C@@H](Nc3ccc(NC(=O)c5cc([N+](=O)[O-])cn5C)cc3)[C@H]3COC(=O)[C@H]23)OCO4)cc(OC)c1O label_value=t
molecule=COc1ccc(-n2c(=O)n(-c3ccccc3)c(=O)n2-c2ccc(OC)cc2)cc1 label_value=f
molecule=COc1cc2c[n+](C)c3c4ccccc4ccc3c2cc1OC.COc1cc2cnc3c4ccccc4ccc3c2cc1OC label_value=f
molecule="CCOC(=O)CCC(NC(=O)c1ccc(CNc2nc3cc(N)cc(N)c3nc2-c2ccccc2)cc1)C(=O)OCC (stereo not given)" label_value=f
molecule=C/C(=N\NC(=S)N1CCCC1)c1nc2cccnc2[nH]1 label_value=f
molecule="O=C1OCC2=C1C(c1ccc3c(c1)OCO3)c1cc3c(cc1O2)OCO3 (stereo not given)" label_value=t
molecule=NS(=O)(=O)c1cc2c(cc1Cl)NC(C(=O)c1cc(=O)c3ccc(O)cc3o1)=NS2(=O)=O label_value=f
molecule=CCCCCCCCCCCCCCCC[N+](C)(C)Cc1ccc(C[N+](C)(C)CCCCCCCCCCCCCCCC)cc1 label_value=f
molecule="CSCSCC(CO)NC(=O)/C=C/c1c(C)nc(O)nc1O (stereo not given)" label_value=f
molecule=CCN(CCCN(CC)C(=O)Nc1ccccc1)C(=O)Nc1ccccc1 label_value=f
molecule=CN(C)c1ccc(/C=C(\C#N)c2nc(-c3cc4ccccc4oc3=O)cs2)cc1 label_value=f
molecule=C=CCNc1nc2c(s1)C(=O)c1ccccc1C2=O label_value=f
molecule=Cn1ncc2c(NCc3ccccc3)ncnc21 label_value=f
molecule=CCOC(=O)c1ccc(NC(=O)O/N=C(/Cl)CCl)cc1 label_value=f
molecule=CCOC(=O)c1sc2c(c1OC(=O)c1cccs1)c(=O)n(-c1ccccc1)c(=S)n2-c1ccccc1 label_value=f
